biological target: Epidermal growth factor receptor (Homo sapiens, UniProt P00533, C797S/T790M); assay: Inhibition of human EGFR T790 M/C797S mutant using poly[Glu:Tyr] (4:1) as substrate incubated for 120 mins in presence of [gamma33P]-ATP by Radiometric hotspot kinase assay
Sequence (P00533 25-1210 T790M/C797S limits assumed): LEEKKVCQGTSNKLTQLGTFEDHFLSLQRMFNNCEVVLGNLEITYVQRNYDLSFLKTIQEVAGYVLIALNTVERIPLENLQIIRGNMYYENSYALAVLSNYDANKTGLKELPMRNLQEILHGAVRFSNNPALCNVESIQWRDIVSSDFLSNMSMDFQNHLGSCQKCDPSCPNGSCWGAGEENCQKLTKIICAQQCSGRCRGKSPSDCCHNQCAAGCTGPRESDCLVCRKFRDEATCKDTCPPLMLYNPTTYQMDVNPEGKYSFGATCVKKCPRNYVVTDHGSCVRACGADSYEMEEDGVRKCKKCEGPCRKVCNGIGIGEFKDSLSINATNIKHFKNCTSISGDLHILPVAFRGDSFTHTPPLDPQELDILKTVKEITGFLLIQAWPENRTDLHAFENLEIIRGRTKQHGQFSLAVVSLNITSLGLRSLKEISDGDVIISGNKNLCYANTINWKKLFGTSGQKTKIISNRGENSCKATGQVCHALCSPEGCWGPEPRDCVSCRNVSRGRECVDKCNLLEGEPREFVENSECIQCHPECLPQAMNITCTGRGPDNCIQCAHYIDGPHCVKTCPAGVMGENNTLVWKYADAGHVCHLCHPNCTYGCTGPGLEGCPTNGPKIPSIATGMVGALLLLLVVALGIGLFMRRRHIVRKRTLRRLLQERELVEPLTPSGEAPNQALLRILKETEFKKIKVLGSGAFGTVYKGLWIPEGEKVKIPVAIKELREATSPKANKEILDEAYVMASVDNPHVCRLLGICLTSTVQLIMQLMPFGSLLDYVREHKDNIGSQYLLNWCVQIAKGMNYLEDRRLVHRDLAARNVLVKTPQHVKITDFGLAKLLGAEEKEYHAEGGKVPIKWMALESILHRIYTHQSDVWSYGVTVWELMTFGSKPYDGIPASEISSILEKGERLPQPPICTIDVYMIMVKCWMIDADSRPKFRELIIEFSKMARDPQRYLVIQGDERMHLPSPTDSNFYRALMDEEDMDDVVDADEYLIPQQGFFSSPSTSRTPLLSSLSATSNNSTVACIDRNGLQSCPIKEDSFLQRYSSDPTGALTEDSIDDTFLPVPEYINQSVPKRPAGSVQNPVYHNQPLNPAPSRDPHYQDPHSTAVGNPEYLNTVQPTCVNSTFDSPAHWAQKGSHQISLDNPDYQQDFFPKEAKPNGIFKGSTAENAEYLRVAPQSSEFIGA
measurement_kind: IC50 (nM)
Use nM as the unit, but write only the number.

Inquiry: Name the recorded IC50 for COc1cc(N2CCC(N3CCN(C)CC3)CC2)c(C)cc1Nc1ncc(Br)c(Nc2ccc(C)cc2P(C)(C)=O)n1 .
Reply text: 1.69

Values from ChEMBL document CHEMBL6114963
